Data origin, for the record: patent US20210054097A1

What ELISA signal relative to background was measured for each of the following?
# Target Or Test System: T1, FX activation peptide 12-mer DAADLDPTENPF (human)
# T1 peptide: DAADLDPTENPF-biotin
# Measurement Notes: peptide ELISA
Ends that are not written are not given here.
Answers are plain numbers.

Before answering, review these 3 worked examples.
Binder: Nb 730C03 (VHH, monovalent Nanobody; also called Nb 730003; not shown: C-terminal FLAG3 and HIS6 tag) VHH: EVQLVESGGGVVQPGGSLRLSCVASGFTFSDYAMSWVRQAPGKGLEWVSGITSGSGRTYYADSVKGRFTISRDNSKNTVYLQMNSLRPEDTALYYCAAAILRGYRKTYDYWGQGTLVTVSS
ELISA signal relative to background: 1.24
--
Binder: Nb 501A02 (VHH, monovalent control Nanobody; also called control Nanobody; not shown: C-terminal FLAG3 and HIS6 tag) VHH: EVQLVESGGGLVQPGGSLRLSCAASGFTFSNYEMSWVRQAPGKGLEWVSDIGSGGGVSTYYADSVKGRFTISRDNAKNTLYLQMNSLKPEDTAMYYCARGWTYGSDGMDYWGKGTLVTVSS
ELISA signal relative to background: 0.88
--
Binder: Nb 701D07 (VHH, monovalent Nanobody; not shown: C-terminal FLAG3 and HIS6 tag) VHH: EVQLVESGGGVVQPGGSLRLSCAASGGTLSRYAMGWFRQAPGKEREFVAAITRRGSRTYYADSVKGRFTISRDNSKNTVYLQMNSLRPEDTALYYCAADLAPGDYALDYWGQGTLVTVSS
ELISA signal relative to background: 0.7

Now for another entry.
Looking for the measured ELISA signal relative to background of Nb 701B09 (VHH, monovalent Nanobody; also called Nb 701609; not shown: C-terminal FLAG3 and HIS6 tag) VHH: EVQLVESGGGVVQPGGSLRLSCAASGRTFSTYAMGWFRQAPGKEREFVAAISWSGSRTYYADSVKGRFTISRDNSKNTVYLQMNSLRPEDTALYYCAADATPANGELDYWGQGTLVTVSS , can you help?
0.81
